These measurements were taken from PubChem BioAssay AID1259334.

- Test system: B cell line, TNFa signaling counterscreen reporter
- method: TNFa signaling inhibitors in B cell line, dose response, counter-screen (AID 1259334);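 also: cells stimulated with TNFa after compound preincubation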
The source made the active and inactive calls. Rule as the data show it: active = AC50 below about 11 µM.
# output must be one of active, inactive

Query: Give the logged outcome of this assay for the following compound: Cc1ccc2c(c1)C(O)(CC(=O)/C=C/C=C/c1ccccc1)C(=O)N2 (stereo not given)
Response: inactive

Query: Give the logged outcome of this assay for the following compound: `CCCCn1c(NC(=O)c2ccc(Br)o2)c(S(=O)(=O)c2ccccc2)c2nc3ccccc3nc21`
Response: active

Query: Give the logged outcome of this assay for the following compound: COc1cc2c(cc1OC)C(=O)C(Br)CC2 (stereo not given)
Response: active

Query: Give the logged outcome of this assay for the following compound: CC1=CC2OC3CC4OC(=O)C=CC=CC(C(C)O)OCC(O)C5(C)OC5C(=O)OCC2(CC1O)C4(C)C31CO1 (stereo not given)
Response: active

Query: Give the logged outcome of this assay for the following compound: `COc1ccc(-c2ccc([C@H]3[C@@H](C#N)N(C(=O)c4cccc(F)c4)[C@H]3CO)cc2)cc1`
Response: inactive

----------
- Test system: B cell line, TNFa signaling counterscreen reporter
- method: TNFa signaling inhibitors in B cell line, dose response, counter-screen (AID 1259334);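 also: cells stimulated with TNFa after compound preincubation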
Activity calls are given as the source filed them. No stated cut-off is given here; in the data, active means AC50 below about 11 µM.
# output must be one of active, inactive

Query: Give the logged outcome of this assay for the following molecule: CC(C)CCCCCCCCCCCCC(=O)NCC(=O)NC1C(O)C(O)C(Nc2ncnc3nc[nH]c23)OC1C(O)CO (centres undefined)
Response: active

Query: Give the logged outcome of this assay for the following molecule: `COc1c(O)cc2oc3cc(O)c(CC=C(C)C)c(O)c3c(=O)c2c1CC=C(C)C`
Response: active

Query: Give the logged outcome of this assay for the following molecule: `C[C@@H]1CN([C@@H](C)CO)C(=O)c2c(c3ccccc3n2C)-c2ccccc2CO[C@H]1CN(C)C(=O)Nc1ccccc1C(F)(F)F`
Response: active

Query: Give the logged outcome of this assay for the following molecule: CC(C)(C)[C@H](N)C(=O)N[C@H]1CCC2C3CC=C4C[C@@H](O)CC[C@]4(C)C3CC[C@@]21C (some centres undefined)
Response: active

Query: Give the logged outcome of this assay for the following molecule: `C[C@@H]1CN([C@@H](C)CO)C(=O)c2c(c3ccccc3n2C)-c2ccccc2CO[C@@H]1CN(C)C(=O)c1cc(Cl)cc(Cl)c1`
Response: inactive

Query: Give the logged outcome of this assay for the following molecule: `O=C(C1CC1)N1C[C@@H]2N[C@H](C1)[C@@H]2c1ccc(-c2ccncc2)cc1`
Response: active

Query: Give the logged outcome of this assay for the following molecule: `C[C@H](CO)N1C[C@H](C)[C@@H](CN(C)Cc2cccc(C(F)(F)F)c2)OCc2ccccc2-c2c(n(C)c3ccccc23)C1=O`
Response: active

Query: Give the logged outcome of this assay for the following molecule: `C=C1C(=O)O[C@H]2[C@H]1CC/C(C)=C/CC[C@@]1(C)O[C@@H]21`
Response: active

Query: Give the logged outcome of this assay for the following molecule: Oc1ccc2c(c1)OCC1(O)Cc3cc(O)c(O)cc3C21 (centres undefined)
Response: active
